Give measured inhibition for each item. Keep answers brief.
- Assay info: M. tuberculosis H37Rv growth inhibitors, H37Rv strain (AID 1626);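 note: bacteria incubated seven days before Alamar blue readout; 0% = bacteria only wells and 100% = bacteria with antibiotic wells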
- Condition parameters: stronger effect = higher value, concentration not given here
In all, about 220,000 compounds went through this assay and about 2,000 (0.91%) were called active. Another 2% or so got no clear call; they are omitted. Not all results are given here. Results with a measured potency or affinity are listed apart.
Just the number please, in %, no unit attached.

query: Dear colleague, I am looking for the recorded inhibition of the following compound: O=C(Cc1ccccc1)Nc1nnc(-c2ccco2)o1
result: 1.37

query: Now give it for CCN(CC)S(=O)(=O)c1ccc(C(=O)OCC(=O)Nc2sc3c(c2C#N)CCCCC3)cc1 too.
result: 6.83

query: Now give it for O=C(NCc1nnc(SCC(=O)N2CCOCC2)o1)c1cccs1 too.
result: 3.48

query: Now give it for Cc1sc2nc(-c3ccccc3)[nH]c(=O)c2c1-c1ccccc1 too.
result: -4.26

query: Now give it for O=c1[nH]c(-c2ccccc2)nc2sc(-c3ccccc3)cc12 too.
result: 0.66

query: Now give it for Cc1cccc(C)c1NC(=O)c1ccc([N+](=O)[O-])s1 too.
result: 11.5

query: Now give it for O=C(O)c1cccnc1Br too.
result: 1.4

query: Now give it for CCSc1nnc(NC(=O)c2cccc3ccccc23)s1 too.
result: 3.82

query: Now give it for CCSc1nnc(NC(=O)c2ccccc2)s1 too.
result: 0.13

query: Now give it for Cc1cccc(NC(=O)c2ccc([N+](=O)[O-])s2)c1C too.
result: 53.1

query: Now give it for O=C(Nc1ccncc1)c1ccc2ccccc2c1 too.
result: 1.37

query: Now give it for O=c1[nH]c(-c2ccncc2)nc2ccccc12 too.
result: -5.72

query: Now give it for O=C(Nc1nnc(-c2ccco2)o1)c1cccc(N2C(=O)CCC2=O)c1 too.
result: 2.38

query: Now give it for CCN(CC)S(=O)(=O)c1ccc(NC(=O)C(C)N(c2ccccc2)S(C)(=O)=O)cc1 (stereo not given) too.
result: -1.18

query: Now give it for CN(C)S(=O)(=O)c1cccc(C(=O)Nc2ccccc2[N+](=O)[O-])c1 too.
result: -64.1

query: Now give it for CCOC(=O)CSc1snnc1C too.
result: -2.01

query: Now give it for CCc1nnc(NC(=O)c2c(OC)cccc2OC)s1 too.
result: -2.43

query: Now give it for C[C@@H]1C=C[C@](Cc2ccccc2)(C(=O)NCC2CC2)N1C(=O)c1ccccc1 too.
result: -23

query: Now give it for CCC(CC)c1nnc(NC(=O)c2cc(-c3ccccc3)nc3ccccc23)s1 too.
result: 65.7

query: Now give it for O=C(Nc1ccc(F)cc1F)c1cccnc1 too.
result: -2.1

query: Now give it for O=c1[nH]c(-c2cccnc2)nc2sc(-c3ccccc3)cc12 too.
result: 6.5

query: Now give it for CN(C)C(CNC(=S)Nc1cccc(Cl)c1)c1ccccc1 (stereo not given) too.
result: 3.58

query: Now give it for CC(C)c1ccc(NC(=O)c2csnn2)cc1 too.
result: -0.83

query: Now give it for O=C(NN1CCOCC1)c1cc(-c2ccc(Br)cc2)nc2ccccc12 too.
result: 7.15

query: Now give it for CCC(CC)c1nnc(NC(=O)c2ccco2)s1 too.
result: -8.07
